Data provenance: patent US12617752B2

- Test summary: Particle size and PDI of lipid nanoparticles by dynamic light scattering
- Format: physicochemical
- Setup conditions: lipid nanoparticles with luciferase mRNA; ionizable lipid/cholesterol/DSPC/DMG-PEG2000 50/38.5/10/1.5 mol%
// boundary case: Particle-size distribution (PDI) equal to 0.09 maps to rule not met; strictly smaller maps to rule met

- Compound: "CCCCCCCCCCCC(=O)OCC(C)(C)CCCCCN(CCCO)CCCCCCCCC(=O)OCC(CCCCCCCC)CCCCCCCC [88b]"
  Class: "rule not met"
- Compound: "CCCCCCCCCCCOC(=O)CCCCC(C)(C)CCN(CCCCO)CCCCCCCC(=O)OC(CCCCCCCCCC)CCCCCCCCCC [68a]"
  Class: "rule met"
- Compound: "CCCCCCCCCC(=O)OCC1(CCCCCN(CCCO)CCCCCCCC(=O)OCC(CCCCCCC)CCCCCCC)CC1 [58b]"
  Class: "rule not met"
- Compound: "CCCCCCCCCCCC(=O)OCC(C)(C)CCCCCN(CCCCO)CCCCCCCCC(=O)OCC(CCCCCCCC)CCCCCCCC [90b]"
  Class: "rule met"
- Compound: "CCCCCCCCCOC(=O)CCCCC(C)(C)CCN(CCO)CCCCCCOC(=O)OCC(CCCCCCC)CCCCCCC [47a]"
  Class: "rule not met"
- Compound: "CCCCCCCCCCOC(=O)CCCCCCCN(CCO)CCCCCC(C)(C)COC(=O)C(CCCCCCCC)CCCCCCCC [18b]"
  Class: "rule met"
- Compound: "CCCCCCCCCCCSC(=O)CCCCCN(CCO)CCCCCCC(C)(C)C(=O)OC(CCCCCCCC)CCCCCCCC [53a]"
  Class: "rule not met"
- Compound: "CCCCCCCCCOC(=O)OCCCCCCN(CCO)CCCCCCC(C)(C)C(=O)OCC(CCCCCCC)CCCCCCC [33a]"
  Class: "rule not met"
- Compound: "CCCCCCCCCOC(=O)CCCCCCCN(CCO)CCCCCCC1(C(=O)OC(CCCCCCCC)CCCCCCCC)CC1"
  Class: "rule met"
- Compound: "CCCCCCCCCCC(=O)OCCCC(C)(C)CCCN(CCCO)CCCCCCCC(=O)OCCC(CCCCCCC)CCCCCCC [81b]"
  Class: "rule not met"
- Compound: "CCCCCCCCCOC(=O)CCCCC(C)(C)CCN(CCO)CCCCCC(=O)OCC(CCCCCCCCC)CCCCCCCCC [69a]"
  Class: "rule not met"
- Compound: "CCCCCCCCCOC(=O)CCCCCCCN(CCO)CCCCC(C)(C)CCC(=O)OC(CCCCCCCC)CCCCCCCC [20a]"
  Class: "rule met"
- Compound: "CCCCCCCCCCCOC(=O)OCCCCN(CCO)CCCCCCC(C)(C)C(=O)OCCC(CCCCCC)CCCCCC [38a]"
  Class: "rule not met"
- Compound: "CCCCCCCCCC(=O)OCC(C)(C)CCCCCN(CCCCO)CCCCCCCC(=O)OC(CCCCCCCCC)CCCCCCCCC [52b]"
  Class: "rule met"
- Compound: "CCCCCCCCCCCC(=O)OCC(C)(C)CCCCCN(CCO)CCCCCCC(=O)OCC(CCCCCCCCCC)CCCCCCCCCC [97b]"
  Class: "rule not met"
- Compound: "CCCCCCCCCNC(=O)CCCCCCCN(CCO)CCCCCCC(C)(C)C(=O)OC(CCCCCCCC)CCCCCCCC [58a]"
  Class: "rule not met"
- Compound: "CCCCCCCCCC(=O)OCC(C)(C)CCCCCN(CCO)CCCCCCCC(=O)OCCCCC(CCCC)CCCC [12b]"
  Class: "rule met"
- Compound: "CCCCCCCCCC(=O)OCC(C)(C)CCCCCN(CCO)CCCCCCC(=O)OCCC(CCCCCCC)CCCCCCC [68b]"
  Class: "rule not met"
- Compound: "CCCCCCCCCCCOC(=O)CCCCCN(CCO)CCCCC(C)(C)CCC(=O)OC(CCCCCCCC)CCCCCCCC [62a]"
  Class: "rule not met"
- Compound: "CCCCCCCCCOC(=O)CC(C)(C)CCCCCN(CCO)CCCCCCOC(=O)OCC(CCCCCCC)CCCCCCC [45a]"
  Class: "rule not met"
- Compound: "CCCCCCCCCCC(=O)OCC(C)(C)CCCCCN(CCCCCCCC(=O)OC(CCCCCCCCC)CCCCCCCCC)C(=O)SCCCCN(C)C [40b]"
  Class: "rule not met"
- Compound: "CCCCCCCCCC(=O)OCC(C)(C)CCCCCN(CCO)CCCCCCOC(=O)OCC(CCCCCCCC)CCCCCCCC [33b]"
  Class: "rule not met"
- Compound: "CCCCCCCCCC(CCCCCCCCC)OC(=O)CCCCCCCN(CCO)CCCCCC(C)(C)COC(=O)CCCC(CCCCCC)CCCCCC [66b]"
  Class: "rule not met"
- Compound: "CCCCCCCCCCOC(=O)OCCCCCCN(CCO)CCCCCC(C)(C)COC(=O)CCC(CCCCCC)CCCCCC [26b]"
  Class: "rule not met"
- Compound: "CCCCCCCCCCOC(=O)CCCCC(C)(C)CCN(CCCO)CCCCCCCC(=O)OC(CCCCCCCCC)CCCCCCCCC [66a]"
  Class: "rule not met"
- Compound: "CCCCCCCCCCCOC(=O)CCCCCN(CCO)CCCCCCC1(C(=O)OC(CCCCCCCC)CCCCCCCC)CC1 [13a]"
  Class: "rule met"

###

- Test summary: Encapsulation efficiency of lipid nanoparticles (Quant-it RiboGreen RNA Assay)
- Type: physicochemical
- Setup conditions: lipid nanoparticles with luciferase mRNA
Readout type: Encapsulation efficiency (%)

- Molecule: "CCCCCCCCCCCOC(=O)CCCCC(C)(C)CCN(CCCCO)CCCCCCCC(=O)OC(CCCCCCCCCC)CCCCCCCCCC [68a]"
  Readout type: "Encapsulation efficiency (%)"
  Measured value: 94.47
- Molecule: "CCCCCCCCCNC(=O)CCCCCCCN(CCO)CCCCCCC(C)(C)C(=O)OC(CCCCCCCC)CCCCCCCC [58a]"
  Readout type: "Encapsulation efficiency (%)"
  Measured value: 68.54
- Molecule: "CCCCCCCCCSC(=O)CCCCCCCN(CCO)CCCCCCC(C)(C)C(=O)OC(CCCCCCCC)CCCCCCCC [52a]"
  Readout type: "Encapsulation efficiency (%)"
  Measured value: 93.30
- Molecule: "CCCCCCCCCCCC(=O)OCC(C)(C)CCCCCN(CCCCO)CCCCCCC(=O)OCC(CCCCCCCCCC)CCCCCCCCCC [91b]"
  Readout type: "Encapsulation efficiency (%)"
  Measured value: 91.95
- Molecule: "CCCCCCCCCC(=O)OCC1(CCCCCN(CCCCO)CCCCCCOC(=O)OCC(CCCCCCCC)CCCCCCCC)CC1 [36b]"
  Readout type: "Encapsulation efficiency (%)"
  Measured value: 96.10
- Molecule: "CCCCCCCCCC(=O)OCC(C)(C)CCCCCN(CCO)CCCCCCOC(=O)OCC(CCCCCCCC)CCCCCCCC [33b]"
  Readout type: "Encapsulation efficiency (%)"
  Measured value: 94.85
- Molecule: "CCCCCCCCCOC(=O)CCCCCCCN(CCO)CCCCC(C)(C)COC(=O)OCC(CCCCCCC)CCCCCCC [51a]"
  Readout type: "Encapsulation efficiency (%)"
  Measured value: 94.81
- Molecule: "CCCCCCCCCC(=O)OCC1(CCCCCN(CCCCO)CCCCCCCC(=O)OC(CCCCCCCCC)CCCCCCCCC)CC1 [24b]"
  Readout type: "Encapsulation efficiency (%)"
  Measured value: 94.52
- Molecule: "CCCCCCCCCCOC(=O)CCCCCCCN(CCO)CCCCCC(C)(C)COC(=O)CCC(CCCCCC)CCCCCC [20b]"
  Readout type: "Encapsulation efficiency (%)"
  Measured value: 87.69

###

- Test summary: Particle size and PDI of lipid nanoparticles by dynamic light scattering
- Assay type: physicochemical
- Setup conditions: lipid nanoparticles with luciferase mRNA; ionizable lipid/cholesterol/DSPC/DMG-PEG2000 50/38.5/10/1.5 mol%
Reported Particle-size distribution (PDI) values follow for various compounds

- Compound: "CCCCCCCC(CCCCCCC)CCOC(=O)OCCCCCCN(CCO)CCCCCC(C)(C)COC(=O)CCC(CCCCCC)CCCCCC [37b]"
  Particle-size distribution (PDI): 0.16
- Compound: "CCCCCCCCCC(=O)OCC(C)(C)CCCCCN(CCCCO)CCCCCCCC(=O)OC(CCCCCCCC)CCCCCCCC [3b]"
  Particle-size distribution (PDI): 0.015
- Compound: "CCCCCCCCCC(=O)OCC1(CCCCCN(CCCCO)CCCCCCOC(=O)OCC(CCCCCCCC)CCCCCCCC)CC1 [36b]"
  Particle-size distribution (PDI): 0.19
- Compound: "CCCCCCCCCCC(=O)OCCC(C)(C)CCCCN(CCCCO)CCCCCCCC(=O)OC(CCCCCCCCC)CCCCCCCCC [55b]"
  Particle-size distribution (PDI): 0.11
- Compound: "CCCCC#CCCCOC(=O)CCCCCCCN(CCO)CCCCCCC(C)(C)C(=O)OC(CCCCCCCC)CCCCCCCC [56a]"
  Particle-size distribution (PDI): 0.09
- Compound: "CCCCCCCCCC(=O)OCC(C)(C)CCCCCN(CCCO)CCCCCCC(=O)OCC(CCCCCCCC)CCCCCCCC [76b]"
  Particle-size distribution (PDI): 0.18
- Compound: "CCCCCCCCCOC(=O)C(C)(C)CCCCCCN(CCO)CCCCCCOC(=O)OCCCCC(CCCC)CCCC [43a]"
  Particle-size distribution (PDI): 0.15
- Compound: "CCCCCCCCCCOC(=O)OCCCCCN(CCO)CCCCCCC(C)(C)C(=O)OC(CCCCCCCC)CCCCCCCC [31a]"
  Particle-size distribution (PDI): 0.11
